- Study system: PDE4B (human recombinant) (Homo sapiens, UniProt Q07343)
- Construct: made in house
- Sequence (Q07343 1-564 isoform Q07343-2): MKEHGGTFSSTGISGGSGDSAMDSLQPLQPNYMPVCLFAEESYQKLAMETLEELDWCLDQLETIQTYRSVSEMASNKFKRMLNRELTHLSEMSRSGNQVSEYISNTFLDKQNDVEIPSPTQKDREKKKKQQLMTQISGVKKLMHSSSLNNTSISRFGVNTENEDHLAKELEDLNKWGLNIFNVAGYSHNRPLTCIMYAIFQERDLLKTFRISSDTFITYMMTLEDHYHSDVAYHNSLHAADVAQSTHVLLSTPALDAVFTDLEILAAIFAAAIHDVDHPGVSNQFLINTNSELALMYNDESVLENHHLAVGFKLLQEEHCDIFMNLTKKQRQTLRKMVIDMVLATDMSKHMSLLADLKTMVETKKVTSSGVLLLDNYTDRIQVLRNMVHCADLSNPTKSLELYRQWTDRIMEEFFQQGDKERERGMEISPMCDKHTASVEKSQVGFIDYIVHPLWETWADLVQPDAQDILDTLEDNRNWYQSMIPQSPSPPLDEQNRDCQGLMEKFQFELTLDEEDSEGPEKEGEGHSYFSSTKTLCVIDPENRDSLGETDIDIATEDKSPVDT
- Test protocol: Inhibition of PDE4B activity: radioactive Scintillation Proximity Assay (SPA)
- Type: biochemical
- Test parameters: SPA assay (Examples 1 to 6); read-out: PDE4B mean pIC50 (converted)
Below, each of the compounds is paired with its reported IC50 value.
Answer with a number only, understood to be in nM.

COc1cccc(Nc2c(C(N)=O)cnc3ccc(C(=O)Nc4ccccc4)cc23)c1 [Example 2]
25.1

Field request: IC50 | item: CNC(=O)c1ccc2ncc(C(N)=O)c(Nc3cccc(OC)c3)c2c1 [Example 6]
501

Field request: IC50 | item: COc1cccc(Nc2c(C(N)=O)cnc3ccc(C(=O)N4CCOCC4)cc23)c1 [Example 1]
10

Field request: IC50 | item: COc1cccc(Nc2c(C(N)=O)cnc3ccc(C(=O)NC(C)(C)C)cc23)c1 [Example 3]
39.8
